From: patent US20250228832A1

molecular target: human M5 receptor (Homo sapiens); construct: expressed in transfected cells; experiment: HTRF IP-One curve shift assay, M5; type: cell-based; settings: M5; Emraclidine concentration […]
property name: pEC50
Give bare numbers, as −log10 of the molar value.

Find the measured pEC50 of CCCCCOc1nsnc1C1=CCCCN1C and report it. 6.96

----------
Kindly state Emax for each of the entries shown.
biological target: human M5 receptor (Homo sapiens, UniProt P08912); construct: expressed in transfected cells; experiment: HTRF IP-One curve shift assay, M5; assay type: cell-based; settings: M5; MK-4710 concentration 123 nM; read-out: Emax
Sequence (P08912 whole entry): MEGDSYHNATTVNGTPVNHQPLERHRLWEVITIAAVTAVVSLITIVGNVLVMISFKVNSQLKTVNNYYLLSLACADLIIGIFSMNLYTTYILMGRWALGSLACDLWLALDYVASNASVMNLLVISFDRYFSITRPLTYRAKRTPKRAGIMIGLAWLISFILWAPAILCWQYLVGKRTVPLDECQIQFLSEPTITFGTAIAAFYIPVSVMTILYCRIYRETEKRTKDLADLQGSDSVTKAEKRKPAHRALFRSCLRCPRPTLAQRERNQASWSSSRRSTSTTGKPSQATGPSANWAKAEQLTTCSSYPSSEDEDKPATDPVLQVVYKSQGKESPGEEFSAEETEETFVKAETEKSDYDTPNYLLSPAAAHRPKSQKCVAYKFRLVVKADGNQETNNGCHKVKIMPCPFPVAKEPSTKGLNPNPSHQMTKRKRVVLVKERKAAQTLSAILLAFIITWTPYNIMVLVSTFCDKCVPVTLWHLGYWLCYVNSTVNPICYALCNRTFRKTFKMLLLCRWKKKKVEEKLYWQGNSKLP
Answers are plain numbers, in %.

Find the measured Emax of CC1OC2(CS1)CN1CCC2CC1 (stereo not shown) [cevimeline, Cevimeline, reference compound] and report it. 88.2

Find the measured Emax of CCCCCCOc1nsnc1C1=CCCN(C)C1 [xanomeline, reference compound] and report it. 86.9

Find the measured Emax of CCCCCCCOc1nsnc1C1=CCCCN1C [KTX-593] and report it. 78.8

***
Find the measured Emax of CCCCCOc1nsnc1C1=CCCCN1C [KTX-517] and report it. 65.7

----------
Kindly state EC50 for each of the entries shown.
biological target: human M1 receptor (Homo sapiens, UniProt P11229); construct: expressed in transfected cells; test: HTRF IP-One curve shift assay, M1; assay type: cell-based; conditions: MK-4710 concentration 0 nM
Sequence (P11229 whole entry): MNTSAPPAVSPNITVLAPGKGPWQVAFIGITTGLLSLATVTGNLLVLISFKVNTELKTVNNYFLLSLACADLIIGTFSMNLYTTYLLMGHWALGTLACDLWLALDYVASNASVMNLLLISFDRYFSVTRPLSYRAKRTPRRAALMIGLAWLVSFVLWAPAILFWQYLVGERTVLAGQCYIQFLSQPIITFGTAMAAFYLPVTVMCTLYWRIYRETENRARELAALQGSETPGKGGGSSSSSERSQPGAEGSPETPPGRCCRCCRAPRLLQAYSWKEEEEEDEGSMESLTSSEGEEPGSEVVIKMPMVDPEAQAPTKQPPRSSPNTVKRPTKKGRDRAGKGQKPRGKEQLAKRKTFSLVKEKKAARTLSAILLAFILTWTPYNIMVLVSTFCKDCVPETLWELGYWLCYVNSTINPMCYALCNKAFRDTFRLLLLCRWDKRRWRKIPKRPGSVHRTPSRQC
One number for each entry, in nM.

Consider the worked cases shown below.
Find the measured EC50 of CCCCCOc1nsnc1C1=CCCCN1C and report it. 8.4

Find the measured EC50 of CC1OC2(CS1)CN1CCC2CC1 (stereo not drawn) [cevimeline, Cevimeline, reference compound] and report it. 1750

***
Find the measured EC50 of CCCCCCCOc1nsnc1C1=CCCCN1C and report it. 8.7

----------
molecular target: human M3 receptor (Homo sapiens); construct: expressed in transfected cells; test: HTRF IP-One curve shift assay, M3; assay type: cell-based; details: M4 PAM MK-4710
Sequence (P20309 whole entry): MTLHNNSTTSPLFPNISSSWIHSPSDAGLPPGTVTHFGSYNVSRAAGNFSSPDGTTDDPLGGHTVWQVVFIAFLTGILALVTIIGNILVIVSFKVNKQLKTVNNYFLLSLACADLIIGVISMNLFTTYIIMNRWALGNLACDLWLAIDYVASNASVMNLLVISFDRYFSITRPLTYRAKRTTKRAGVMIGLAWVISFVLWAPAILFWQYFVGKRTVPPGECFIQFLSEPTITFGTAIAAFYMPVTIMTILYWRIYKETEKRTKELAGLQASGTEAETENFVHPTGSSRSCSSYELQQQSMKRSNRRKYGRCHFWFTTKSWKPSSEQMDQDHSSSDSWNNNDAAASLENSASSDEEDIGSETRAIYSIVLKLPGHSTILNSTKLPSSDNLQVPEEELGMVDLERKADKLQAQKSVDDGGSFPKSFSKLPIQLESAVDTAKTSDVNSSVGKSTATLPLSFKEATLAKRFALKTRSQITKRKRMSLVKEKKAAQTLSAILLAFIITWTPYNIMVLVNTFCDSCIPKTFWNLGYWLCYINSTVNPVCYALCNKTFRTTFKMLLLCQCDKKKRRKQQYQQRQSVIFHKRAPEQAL
property name: τ (agonist pharmacology)
Numbers only.

Consider the worked cases shown below.
Find the measured τ (agonist pharmacology) of CC1OC2(CS1)CN1CCC2CC1 (stereo not shown) [cevimeline, Cevimeline, reference compound] and report it. 0.0

Find the measured τ (agonist pharmacology) of CCCCCOc1nsnc1C1=CCCCN1C and report it. 0.0

Find the measured τ (agonist pharmacology) of CCCCCCCOc1nsnc1C1=CCCCN1C and report it. 0.0

Please find the next molecule below.
Find the measured τ (agonist pharmacology) of CCCCCCOc1nsnc1C1=CCCN(C)C1 [xanomeline, reference compound] and report it. 0.1

----------
biological target: human M5 receptor (Homo sapiens, UniProt P08912); construct: expressed in transfected cells; assay: HTRF IP-One curve shift assay, M5; assay type: cell-based; settings: M5; MK-4710 concentration […]; read-out: Emax
Kindly state Emax at […] for each of the entries shown.
One number for each entry, in %.

State Emax at […] (human M5 receptor (Homo sapiens, UniProt P08912)) of CCCCCOc1nsnc1C1=CCCCN1C . 54.9

State Emax at […] (human M5 receptor (Homo sapiens, UniProt P08912)) of CC(=O)OCC[N+](C)(C)C [acetylcholine, reference compound] . 77.7

State Emax at […] (human M5 receptor (Homo sapiens, UniProt P08912)) of CC1OC2(CS1)CN1CCC2CC1 (stereo not shown) [cevimeline, Cevimeline, reference compound] . 97.3

***
State Emax at […] (human M5 receptor (Homo sapiens, UniProt P08912)) of CCCCCCCOc1nsnc1C1=CCCCN1C . 69.7
